Where do the numbers come from? From patent US20030166932A1.

- TESTED TARGET: RARγ (Homo sapiens, UniProt P13631)
- Sequence (P13631 156-454): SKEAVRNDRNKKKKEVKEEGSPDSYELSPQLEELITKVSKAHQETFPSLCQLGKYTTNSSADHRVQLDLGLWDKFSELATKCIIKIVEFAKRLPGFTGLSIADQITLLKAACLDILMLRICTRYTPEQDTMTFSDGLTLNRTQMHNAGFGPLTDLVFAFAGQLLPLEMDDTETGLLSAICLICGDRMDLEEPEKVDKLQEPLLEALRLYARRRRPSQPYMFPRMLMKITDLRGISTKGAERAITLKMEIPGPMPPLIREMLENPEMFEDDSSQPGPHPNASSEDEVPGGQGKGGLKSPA
- Format: cell-based
- CONDITION INFO: NA = Not Active; read-out: RAR Trans. EC50 (nM) Y
MEASURED METRIC: EC50

Query: # lookup: EC50 of C=CCN(c1ccc(C(=O)O)cc1)c1ccc2c(c1)C(C(C)(C)C)=CCC2(C)C
Reply: > 1000 nM

====

Recorded log10(Ki) values for a group of compounds are listed next.
- TESTED TARGET: RXRα (Homo sapiens)
- Sequence (P19793 whole entry): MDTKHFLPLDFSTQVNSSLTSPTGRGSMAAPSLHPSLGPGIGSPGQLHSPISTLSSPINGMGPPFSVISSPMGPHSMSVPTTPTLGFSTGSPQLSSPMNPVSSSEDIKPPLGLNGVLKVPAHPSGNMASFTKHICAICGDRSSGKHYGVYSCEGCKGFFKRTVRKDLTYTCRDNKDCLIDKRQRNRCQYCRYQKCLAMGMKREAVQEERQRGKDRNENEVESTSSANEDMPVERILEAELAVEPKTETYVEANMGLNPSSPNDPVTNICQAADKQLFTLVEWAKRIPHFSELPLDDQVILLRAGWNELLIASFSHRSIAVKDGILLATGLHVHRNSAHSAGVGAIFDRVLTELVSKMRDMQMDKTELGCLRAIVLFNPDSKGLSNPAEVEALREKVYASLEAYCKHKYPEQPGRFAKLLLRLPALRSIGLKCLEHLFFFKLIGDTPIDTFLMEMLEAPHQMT
Recall that a logarithmic scale is used here: each number is log10 of Ki in nM.

Solved cases (5 shown):
>>> reported_measurement("CCN(c1ccc(C(=O)O)cc1)c1cc2c(cc1C)C(C(C)C)=CCC2(C)C")
3.08
>>> reported_measurement("CCCN(c1ccc(C(=O)O)cc1)c1cc2c(cc1C)C(C(C)C)=CCC2(C)C")
2.69
>>> reported_measurement("Cc1cc2c(cc1N(C)c1ccc(C(=O)O)cc1)C(C)(C)CC=C2C(C)C")
3.23
>>> reported_measurement("CCCCCCOc1cc2c(cc1N(CC)c1ccc(C(=O)O)cc1)C(C)=CCC2(C)C")
2.28
>>> reported_measurement("CCN(c1ccc(C(=O)O)cc1)c1cc2c(cc1OCc1ccccc1)C(C)(C)CC=C2C(C)(C)C")
0.60

Query: # lookup: log10(Ki) of CC1=CCC(C)(C)c2cc(N(CC3CC3)c3ccc(C(=O)O)cc3)c(C)cc21
Reply: 3.40

Query: # lookup: log10(Ki) of CCC1=CCC(C)(C)c2cc(N(CC)c3ccc(C(=O)O)cc3)ccc21
Reply: 2.65

Query: # lookup: log10(Ki) of CCN(c1ccc2c(c1)C(C)=CCC2(C)C)c1ccc(C(=O)O)cn1
Reply: 1.81

Query: # lookup: log10(Ki) of CCN(c1ccc(C(=O)O)cc1)c1cc2c(cc1OCc1ccccc1)C(C)(C)CC=C2C
Reply: 1.89

Query: # lookup: log10(Ki) of CCC1=CCC(C)(C)c2cc(N(CC)c3ccc(C(=O)O)cc3)c(C)cc21
Reply: 2.45

Query: # lookup: log10(Ki) of CCN(c1ccc(C(=O)O)cc1)c1cc2c(cc1C)C(C)(C)CC=C2C
Reply: 0.90

Query: # lookup: log10(Ki) of CCCCOc1cc2c(cc1N(CC)c1ccc(C(=O)O)cc1)C(C(C)C)=CCC2(C)C
Reply: 1.46

Query: # lookup: log10(Ki) of CC1=CCC(C)(C)c2cc(N(C)c3ccc(C(=O)O)cc3)ccc21
Reply: 2.82

Query: # lookup: log10(Ki) of CCN(c1ccc(C(=O)O)cc1)c1cc2c(cc1C)C(C(C)(C)C)=CCC2(C)C
Reply: 1.81

Query: # lookup: log10(Ki) of CCN(c1ccc(C(=O)O)cc1)c1cc2c(cc1OCc1cc(C(C)(C)C)cc(C(C)(C)C)c1)C(C)(C)CC=C2C(C)C
Reply: 2.91

Query: # lookup: log10(Ki) of CCN(c1ccc(C(=O)O)cc1)c1ccc2c(c1)C(C(C)(C)C)=CCC2(C)C
Reply: 0.48

Query: # lookup: log10(Ki) of CCN(c1ccc(C(=O)O)cc1)c1cc2c(cc1C)C(C)(C)CC=C2C(C)C
Reply: 0.30
